# Experimental system: T1, human SIRPα1 (huSIRPα1), protein antigen (human, UniProt P78324 31-370, limits assumed, biotinylated in the SPR assay)
# T1 construct: Coated on the plate in ELISA, biotinylated and captured in SPR; also called v2
# T1 sequence (P78324 other isoform, or with tags, fused parts or gaps limits assumed): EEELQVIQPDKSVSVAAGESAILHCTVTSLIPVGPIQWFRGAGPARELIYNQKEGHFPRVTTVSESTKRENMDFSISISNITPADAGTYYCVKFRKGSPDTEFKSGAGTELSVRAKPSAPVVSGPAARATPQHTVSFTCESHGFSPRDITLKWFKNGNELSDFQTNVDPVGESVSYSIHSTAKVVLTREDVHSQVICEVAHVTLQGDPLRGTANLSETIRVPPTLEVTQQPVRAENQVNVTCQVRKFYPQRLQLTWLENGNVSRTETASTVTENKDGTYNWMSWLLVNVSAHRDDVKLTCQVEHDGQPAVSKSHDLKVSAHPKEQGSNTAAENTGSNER
# Protocol details: ELISA, antigen coated
# Procedure: ELISA assay: Solutions of huSIRPα₁, huSIRPαBIT, huSIRPβ₁ᵥ₁, huSIRPβ₁ᵥ₂, huSIRPγ and cySIRPα in phosphate buffered saline (PBS) were each added to a multiple well black polystyrene plate for ELISA and allowed to adhere for 1 h at RT. Unbound protein was removed with three washing steps using standard washing buffer. Subsequently, blocking buffer was added to the wells. After 1 h incubation at RT, the wells were washed three times with standard washing buffer. […] Absorbance was read at 450 nm/620 nm.
Property: EC50 (µg/mL)
Please reply with the bare figure in µg/mL and do not write the unit itself.

# count of solved cases: 2
Find the recorded EC50 belonging to anti-SIRPα antibody 5 (antibody, human IgG1, kappa, L234A L235A, V domains shown, Rabbit variable regions on human IgG1 LALA / kappa) VH: QSVEESGGRLVTPGTPLTLTCTVSGFSLSSYVMGWFRQAAGKGLEYIGYINADGSPYYATWVNGRFTISKTPTTMDLKINSPTTEDTATYFCARVGPLGVDYFNIWGPGTLVTVSL VL: DIVMTQTPASVEAAVGGTVTIKCQASQSINRYLTWYQQKPGQRPKLLIYYASTLESGVPSRFEGSGSGTDYTLTISDLESADAATYYCQSYYYISRTYAFGGGTEVVVKR and report it.
0.031

anti-SIRPα antibody 6 (antibody, human IgG1, kappa, L234A L235A, V domains shown, Rabbit variable regions on human IgG1 LALA / kappa) VH: QSVEESGGRLVTPGTPLTLTCTVSGIDLSSYTMTWVRQAPGKGLEWIGIIYAGGSTAYASWAKGRFTISKTSTTVDLKITSPTTEDTATYFCARSSSDGYDYFNIWGPGTLVTVSL VL: GVVMTQTPSSVSAAVGGTVTINCQASQSIGSWLAWYQQKPGQPPKLLIYQASKLASGVPSRFSGRGSGTHFTLTISDVQSDDAATYYCQQTVTAASNVDNAFGGGTEVVVKR , same question.
0.021

Please examine the following record next.
Dear colleague, I am looking for the recorded EC50 of the following binder: anti-SIRPα antibody 4 (antibody, human IgG1, kappa, L234A L235A, V domains shown, Chimeric: rabbit variable regions on human IgG1 LALA / kappa; also called chimeric antibody 4) VH: QSVEESGGRLGTPGTPLTLTCTVSGFSLSSYVMGWFRQAPGKGLEYIGIISSSGSPYYASWVNGRFTISKTSTTMDLKMNSPTTEDTATYFCARVGPLGVDYFNIWGPGTLVTVSL VL: DIVMTQTPSSVEAAVGGTVTIKCQAGQSINSYLAWYQQKPGQRPKLLIYYASTLESGVPSRFKGSGSGTDYTLTISDLESADAATYYCQSWHYISRSYAFGGGTEVVVKR
0.053

Values were extracted from patent US20220195063A1.
